Known apparent KD of MS2 coat protein of a selection of sequences
# Test system: MS2 coat protein
# experiment summary: apparent KD of MS2 coat protein; designed switch direction (-1 OFF switch, 1 ON switch): -1; higher = weaker reporter binding
# test conditions: Eterna round: R95; input ligand: microRNA oligo, concentration not stated

# input sequence, tested target, unit text, apparent KD of MS2 coat protein
rows = [
    ("GAGUACUGAGGAUAUACAUGAGGAUCACCCAUGUGUUCCAGCUAGGAAACUAGCAAAAGUAGAAGGCAGUACUG [salish99_ex3_r3_084] (puzzle: Exclusion 3)", "MS2 coat protein", "nM", 18.9),
    ("AAUUUAACAUAGGAUAUCGAAUUUAUUAUUUAACGAGAAGGAUGAACAUGAGGAUCACCCAUGUGGUAUCAUGG [Mat - Exclusion 6 - JL Mod - D22] (puzzle: Exclusion 6)", "MS2 coat protein", "nM", 109),
    ("GUGGCACAUGAGGAUCACCCAUGUCAGGAUAUCGCGUGGUUUUUUGCGGCCGCGCGCGCGAGAAGGGACGUCUU (puzzle: Exclusion 1)", "MS2 coat protein", "nM", 31.1),
    ("AAGAGUGCAGGAUAUACUUGGUAGGGUAAGAUGAGUGAGUGACAUGAGGAUCACCCAUGUAGAAGGGCAGAGAG [JR_Exclu2_Sub056] (puzzle: Exclusion 2)", "MS2 coat protein", "nM", 107),
    ("UUGAAGAUAGGAUAUACGAGGAGAGGAGAGAGAAGGUGAGGACAUGAGGAUCACCCAUGUAGAAGGAUCAGGAG [JR_Exclu2_Sub066] (puzzle: Exclusion 2)", "MS2 coat protein", "nM", 86.9),
    ("GACUAGGCAGGAUAUACAUGAGGAUCACCCAUGUGUCUGCGAUAGGCACGUGAUUACUGUAGAAGGGCCUUGAC [Exclusion 3 - mod of a parushev design] (puzzle: Exclusion 3)", "MS2 coat protein", "nM", 204),
    ("AGUACUGGCGCGUCGGUGUUGGUACAAUAAGCUUGUGAAACAUGAGGAUCACCCAUGUCCUCAUAAGCUCGUCUUAU [salish99_TOv2_r2_083] (puzzle: Sensor v3, turn-off variant 2)", "MS2 coat protein", "nM", 600),
    ("CAGUACUGAGGAUAUACAUGAGGAUCACCCAUGUGUCCCGGCUAGGAAACUAGCAAAAGUAGAAGGCAGUACUG [Fiskers Ex 3 828 mod 2] (puzzle: Exclusion 3)", "MS2 coat protein", "nM", 25.1),
    ("CUUAUGUGAGGAUAUCAGUAGUGAUACGAUAGUAUUACUGCUGAGAAGGUACAUGAGGAUCACCCAUGUUCCUC [Exclusion 4 - Mod Omei Ex4 344 mod 4 v.1] (puzzle: Exclusion 4)", "MS2 coat protein", "nM", 16.2),
    ("AGUUGCGCAGGAUAUACAUGAGGAUCACCCAUGUGAGAGAAAUAAGUGAGGAAGAAAAGUAGAAGGGCGUGACG [Mat - Exclusion 3 - Mod of Salish D73] (puzzle: Exclusion 3)", "MS2 coat protein", "nM", 53.8),
    ("AAUAACAGAGGAUAUACUAUUUUAUGUGUUUAUUGUUUUAAACAUGAGGAUCACCCAUGUAGAAGGCUGAAUAA [JMF 16] (puzzle: Exclusion 2)", "MS2 coat protein", "nM", 26.8),
    ("CGAUGUUAUGUCAGGAUAUACAUUGCGAAAGCAAUGUAGAAGGGACAUGAGGAUCACCCAUGUCCUAACCAUCG [Omei A 3] (puzzle: Brourd's mod of Exclusion 4)", "MS2 coat protein", "nM", 12.7),
    ("GAUGUGGGUUUCCGGAGUAACAUGAGGAUCACCCAUGUAGAAGUUGGAGGGAUCAAGCUUUUUGGUCGUCAUAUGUG [JR_SV3TOV1_Sub052] (puzzle: Sensor v3, turn-off variant 1)", "MS2 coat protein", "nM", 246),
    ("AAUAAGAGAGGAUAUACUAAAAUAUGAAUAAAAUAAAUAAAACAUGAGGAUCACCCAUGUAGAAGGCUCAAUAA [JMF's Not so obvious solution 6] (puzzle: Exclusion 2)", "MS2 coat protein", "nM", 19.2),
    ("GAGUAGCUAGGAUAUCGAAAACAUCACAUGAGGAUCACCCAUGUGCCGGGUGCUCAGAUGCGAGAAGGAGCAAAGA [Reatququ] (puzzle: Exclusion 5)", "MS2 coat protein", "nM", 131),
    ("CUAUUGUGAGGAUAUCAGUAGUAGAACAAUAGUACUACUACUGAGAAGGCACAUGAGGAUCACCCAUGUUCCUC [Fiskers Ex 4 Super stable 44 mod 7] (puzzle: Exclusion 4)", "MS2 coat protein", "nM", 57.3),
    ("UGGUAACAUGAGGAUCACCCAUGUCAGGAUAUCAGUAAGAAGAGAUUAGAUUAGAAUAUGAGAAGGGACUAUAG [Excluse me! 2 - Jieux - Exclusion 1] (puzzle: Exclusion 1)", "MS2 coat protein", "nM", 40.3),
    ("UUAUUAAGUGUGAGGAUAUGCUGGUCCUUGGAUCAGCAGAAGGCACAUGAGGAUCACCCAUGUAAUAUAUUUAU [JL bmx4 3.09] (puzzle: Brourd's mod of Exclusion 4)", "MS2 coat protein", "nM", 75.8),
    ("UUCCUGUCAGGAUAUGACUAGAGGCACGAAAGUGUGUUUAGUUAGAAGGGACAUGAGGAUCACCCAUGUAGUCC [Bring Us a Shrubbery-20] (puzzle: Exclusion 4)", "MS2 coat protein", "nM", 21.9),
    ("GUGGAGUAAGGAUAUACAUGAGGAUCACCCAUGUAAGGGAAGGUGAUGGGAGUAGAUAGUAGAAGGUACGAGGA [JR_Exclu3_Sub067] (puzzle: Exclusion 3)", "MS2 coat protein", "nM", 97.2),
    ("CUGGUCCGAGGAUAUAUUAAGUGAAACAUGAGGAUCACCCAUGUUAUUUGAUGGAAGAAAAUAGAAGGCGGACUAG [Mat - Exclusion 5 - JL mod - D59] (puzzle: Exclusion 5)", "MS2 coat protein", "nM", 86.9),
]

###

# Test system: MS2 coat protein
# experiment summary: apparent KD of MS2 coat protein; designed switch direction (-1 OFF switch, 1 ON switch): 1; higher = weaker reporter binding
# test conditions: input ligand: microRNA oligo, concentration not stated
Known apparent KD of MS2 coat protein of a selection of sequences

# input sequence, tested target, apparent KD of MS2 coat protein, nM
rows = [
    ("CUACGAGCGCCACAGGAUAUACUGAGACUCACAUGAGGAUCACCCAUGUCCAAUUCUCCCAAAUAGUAGAAGGGUGACGCGCUCG [Maenve] (Eterna round: R96, puzzle: Same State 2)", "MS2 coat protein", 426),
    ("UGGUACAUGGGAGGAUAUCAUGUAGAAACAUGAGGAUCACCCAUGUAGGUGGCCGGUAACCGGAAUGAGAAGGCCCAUGUACCU [JL SSNG1 3.62] (Eterna round: R96, puzzle: Same State NG 2)", "MS2 coat protein", 48.6),
    ("AAACAUGAGCGAGGAUAUACAUGAGGAUCACCCGUAGAAGGCGCAUGUAAAACAACAUGAGGAUCACCCAUGUCAUGUACAUGA [Same State NG1 S1] (Eterna round: R96, puzzle: Same State NG 1)", "MS2 coat protein", 55),
]

###

# Tested on: MS2 coat protein
# experiment summary: apparent KD of MS2 coat protein, switch OFF state (with FMN for OFF switches, without FMN for ON switches); designed switch direction (-1 OFF switch, 1 ON switch): -1; higher = weaker reporter binding
# test conditions: FMN input: 0 or 200 uM; Eterna round: R93 (includes R88 designs)

# input sequence, apparent KD of MS2 coat protein, nM
records = [
    ("AAAAUACAUGAGGAUCACCCAUGUGAGGAUAUGCUAUGGAAAAUAAAAAUAAAACAUAGCAGAAGGUACAAAAA [Denovo 14]", 33.4),
    ("AAGAACCAAGGAUAUACAUGAAAGAAAGAAAAGAAAAGAAAACAUGAGGAUCACCCAUGUAGAAGGUGGUAGAA [EteRNA is fun!]", 105),
    ("AAGGGACAUGAGGAUCACCCAUGUCAGGAUAUGCUAUGGAAAAUAAAAAUAAAACAUAGCAGAAGGGACACCAA [64%, Meechl, 3]", 40.3),
    ("AACAGUACAGGAUAUACAUGAGGAUCACCCAUGUAGAGAAAAUAAAACAAAAAUAAAAGUAGAAGGGUACUGGA [Ruby 47]", 26.4),
]

###

# System: MS2 coat protein
# experiment summary: apparent KD of MS2 coat protein; designed switch direction (-1 OFF switch, 1 ON switch): 1; higher = weaker reporter binding
# test conditions: input ligand: none
If the reported apparent KD of MS2 coat protein equals or exceeds 300 nM, assign yes. If not, assign no.

# input sequence, category label
measured = [
    ("GAAAGCAACGGAGGAUAUUCGCGUACGUUGGACGAAGAAGGCCGACAUGAGGAUCACCCAUGUACGAAUCACGCCAUAGCAUUA [Eternabot solution 12] (Eterna round: R96, puzzle: Same State NG 1)", "no"),
    ("UUCUCAUUUACAUGAGGAUCACCCAUGUUUUUAUGUCAGAGAUAGGAUAUAGUUCUCUCGUUUUUCUAGAAGGAUCUUUUUAUU [JR_SSNG3_Sub086] (Eterna round: R96, puzzle: Same State NG 3)", "no"),
    ("GCUCGUACGAUGACCGACAUGAGGAUCACCCAUGUGUGUCGGUAGGAUAUCUAUAUUAAGGAUUUAGAGAAGGGCCCAACGAGC [SameState NG3 #19] (Eterna round: R96, puzzle: Same State NG 3)", "no"),
    ("UAUUAAGCUGUAGGAUAUCUAGGAUAUGGACGAGGAUCACCCGAGCAGCAUCAGCGCACCAGAGGAGAGAAGGACGCUUUGGUG [pwkr ssNG2 2F5 2FMN.23] (Eterna round: R96, puzzle: Same State NG 2)", "yes"),
    ("GGAUCGUCGGCAGGAUAUGAGCAAGUGCAUCGAUCAGAAGGGUCGAGUCCUAGAAGGUAAAGCACAUGAGGAUCACCCAUGUAG [Eternabot solution 39] (Eterna round: R96, puzzle: Same State NG 1)", "no"),
    ("GUUACAUGAGGAUCACCCAUGUGUGUGUGGGAGUGAGUGGCUUAGGAUAUCUAUGAUUUAAGUUAAGAGAAGGGAGAUUGUUGU [SS-NG3-LRO04] (Eterna round: R96, puzzle: Same State NG 3)", "yes"),
    ("UUACUCCCUACAUGAGGAUCACCCAUGUUUUACAAACCCAACGAGGAUAUGUUGAGCGGAUGUAAGCAGAAGGCGUAGGGUAGA [Eternabot solution 37] (Eterna round: R96, puzzle: Same State NG 3)", "no"),
    ("GGAGCCGGCACCGAGGAUAUUCAUAUUAAAACAUGAGGAUCACCCAUGUAGGCCAGAAGGCCUUGGGAGAAGGCGGACCGGCUCG [Xeonanis - 4] (Eterna round: R96, puzzle: Same State 2)", "no"),
    ("GGUCGGACUCACAUGAGGAUCACCCAUGUUGCGGAAACGCGGCAGGAUAUCUGUCCGAAAAGGUCAGAGAAGGGCUAACCGACC [Fiskers NG3ss - 56] (Eterna round: R96, puzzle: Same State NG 3)", "yes"),
]

# credit: the supplement of paper PMC9170038
